system: SAGPY (Arrowhead (Pygmaea)); experiment: Preemergence weed control under flooded paddy conditions; type: in vivo, Sagittaria pygmaea; details: 0.0625 kg/ha, rated 3-4 weeks after treatment
Each item that follows carries a reported herbicidal effect rating, SAGPY.
measurement.kind: herbicidal effect rating, SAGPY

INSERT INTO measurements (compound, val) VALUES
  ('CCOC(=O)CN1C(=O)C(C(=O)OC)SC1=Nc1cc(-n2c(=O)cc(C(F)(F)F)n(C)c2=O)c(F)cc1Cl (stereo not drawn)', 3.0),
  ('COC(=O)C(C)OC(=O)CN1C(=O)CSC1=Nc1cc(-n2c(=O)cc(C(F)(F)F)n(C)c2=O)c(F)cc1Cl (stereo not drawn)', 3.0),
  ('CCN1C(=O)CSC1=Nc1cc(-n2c(=O)cc(C(F)(F)F)n(C)c2=O)c(F)cc1Cl', 3.0),
  ('Cn1c(C(F)(F)F)cc(=O)n(-c2cc(N=C3SCC(=O)N3C3CCCC3)c(Cl)cc2F)c1=O', 4.0),
  ('Cn1c(C(F)(F)F)cc(=O)n(-c2cc(N=C3SCC(=O)N3Cc3ccc(F)cc3)c(Cl)cc2F)c1=O', 2.0),
  ('Cc1ccc(CN2C(=O)CSC2=Nc2cc(-n3c(=O)cc(C(F)(F)F)n(C)c3=O)c(F)cc2Cl)cc1Cl', 2.0),
  ('C=C1SC(=Nc2cc(-n3c(=O)cc(C(F)(F)F)n(C)c3=O)c(F)cc2Cl)N(CC(=O)OCC)C1=O', 4.0),
  ('CC(C)N1C(=O)CSC1=Nc1cc(-n2c(=O)cc(C(F)(F)F)n(C)c2=O)c(F)cc1Cl', 4.0),
  ('Cc1cc(C)cc(CN2C(=O)CSC2=Nc2cc(-n3c(=O)cc(C(F)(F)F)n(C)c3=O)c(F)cc2Cl)c1', 0.0);

----------
Each item that follows carries a reported Preemergence herbicidal rating CASOB.
test system: CASOB (Sicklepod); assay: Preemergence herbicidal evaluation; format: in vivo, Cassia obtusifolia; settings: rate 0.2500 kg/ha; rated 4-5 weeks after treatment; rating scale 0-9
measurement.kind: Preemergence herbicidal rating CASOB

INSERT INTO results (compound, val) VALUES
  ('C=C1SC(=Nc2cc(-n3c(=O)cc(C(F)(F)F)n(C)c3=O)c(F)cc2Cl)N(CC(=O)OCC)C1=O', 9.0),
  ('COc1cc(CN2C(=O)CSC2=Nc2cc(-n3c(=O)cc(C(F)(F)F)n(C)c3=O)c(F)cc2Cl)cc(OC)c1OC', 0.0),
  ('Cc1cc(C)cc(CN2C(=O)CSC2=Nc2cc(-n3c(=O)cc(C(F)(F)F)n(C)c3=O)c(F)cc2Cl)c1', 1.0),
  ('Cn1c(C(F)(F)F)cc(=O)n(-c2cc(N=C3SCC(=O)N3Cc3cccc(Cl)c3)c(Cl)cc2F)c1=O', 0.0);

----------
Each item that follows carries a reported Preemergence herbicidal rating GALAP.
test system: GALAP (Galium); assay: Preemergence herbicidal evaluation; assay type: in vivo, Galium aparine; details: rate 0.0625 kg/ha; rated 4-5 weeks after treatment
measurement.kind: Preemergence herbicidal rating GALAP

INSERT INTO measurements (compound, measurement_kind, val) VALUES
  ('Cn1c(C(F)(F)F)cc(=O)n(-c2cc(N=C3SCC(=O)N3CC(=O)OC3CCCC3)c(Cl)cc2F)c1=O', 'Preemergence herbicidal rating GALAP', 0.0),
  ('Cn1c(C(F)(F)F)cc(=O)n(-c2cc(N=C3SCC(=O)N3CC(=O)OCC3CCCCC3)c(Cl)cc2F)c1=O', 'Preemergence herbicidal rating GALAP', 3.0),
  ('C[C@H](C(=O)O)N1C(=O)CSC1=Nc1cc(-n2c(=O)cc(C(F)(F)F)n(C)c2=O)c(F)cc1Cl', 'Preemergence herbicidal rating GALAP', 0.0),
  ('COC(=O)C(Cc1ccc(Cl)cc1)N1C(=O)CSC1=Nc1cc(-n2c(=O)cc(C(F)(F)F)n(C)c2=O)c(F)cc1Cl (racemic)', 'Preemergence herbicidal rating GALAP', 0.0),
  ('Cn1c(C(F)(F)F)cc(=O)n(-c2cc(N=C3SCC(=O)N3Cc3ccccc3)c(Cl)cc2F)c1=O', 'Preemergence herbicidal rating GALAP', 0.0),
  ('COC(=O)C(C)OC(=O)CN1C(=O)CSC1=Nc1cc(-n2c(=O)cc(C(F)(F)F)n(C)c2=O)c(F)cc1Cl (centres unmarked)', 'Preemergence herbicidal rating GALAP', 0.0),
  ('CCOC(=O)CN1C(=O)C(CC(=O)Nc2ccccc2)SC1=Nc1cc(-n2c(=O)cc(C(F)(F)F)n(C)c2=O)c(F)cc1Cl (centres unmarked)', 'Preemergence herbicidal rating GALAP', 0.0),
  ('C[C@@H](C(=O)OC(C)(C)C)N1C(=O)CSC1=Nc1cc(-n2c(=O)cc(C(F)(F)F)n(C)c2=O)c(F)cc1Cl', 'Preemergence herbicidal rating GALAP', 0.0),
  ('CC(C)C[C@@H](C(=O)O)N1C(=O)CSC1=Nc1cc(-n2c(=O)cc(C(F)(F)F)n(C)c2=O)c(F)cc1Cl', 'Preemergence herbicidal rating GALAP', 0.0),
  ('C[C@@H](C(=O)O)N1C(=O)CS/C1=N/c1cc(-n2c(=O)cc(C(F)(F)F)n(C)c2=O)c(F)cc1Cl', 'Preemergence herbicidal rating GALAP', 5.0),
  ('Cc1ccccc1CN1C(=O)CSC1=Nc1cc(-n2c(=O)cc(C(F)(F)F)n(C)c2=O)c(F)cc1Cl', 'Preemergence herbicidal rating GALAP', 1.0),
  ('CC(C)S(=O)(=O)NC(=O)CC1SC(=Nc2cc(-n3c(=O)cc(C(F)(F)F)n(C)c3=O)c(F)cc2Cl)N(C)C1=O (centres unmarked)', 'Preemergence herbicidal rating GALAP', 0.0),
  ('CCOC(=O)CN1CC(=O)N(CC(=O)OCC)C1=Nc1cc(-n2c(=O)cc(C(F)(F)F)n(C)c2=O)c(F)cc1Cl', 'Preemergence herbicidal rating GALAP', 7.0),
  ('CCOC(=O)CN1C(=O)C(CCO)S/C1=N/c1cc(-n2c(=O)cc(C(F)(F)F)n(C)c2=O)c(F)cc1Cl (centres unmarked)', 'Preemergence herbicidal rating GALAP', 7.0);

Ref: patent US20020137929A1
